tested on: HBV; experiment: antiviral assay in 2.2.15 cells producing HBV (virion DNA dot blot); assay type: cell-based, Hepatitis B virus; settings: extra-cellular virus reduced by 50%; 2.2.15 cells, 9 days treatment; read-out: Antiviral EC50
READOUT: EC50 (µM)
Give just the numeric value; µM need not be written.

These solved cases illustrate the format of a correct answer.
# CHEM SMILES, READOUT, TEST VALUE
records = [
    ("Cc1ccc(Nc2nc(NN=Cc3cccc(Br)c3)nc(Nc3ccccc3)n2)c(C)c1", "EC50", 1.2),
    ("CC(=NNc1nc(NCc2ccccc2)nc(Nc2ccccc2)n1)c1ccc([N+](=O)[O-])cc1", "EC50", 54),
    ("Cc1ccc(Nc2nc(NN=Cc3ccccc3)nc(Nc3ccccc3)n2)c(C)c1", "EC50", 33),
]

Entry Brc1cccc(C=NNc2nc(Nc3ccccc3)nc(N3CCOCC3)n2)c1 has what EC50?
0.958

---

tested on: HBV; test: antiviral assay in 2.2.15 cells producing HBV (virion DNA dot blot); format: cell-based, Hepatitis B virus; settings: extra-cellular virus reduced by 50%; 2.2.15 cells, 9 days treatment; read-out: Antiviral EC50
EC50 values for the compounds below.

In the examples that follow, each entry is paired with its recorded EC50.
# CHEM SMILES, TEST VALUE
data = [
    ("CCCCN(CCCC)c1nc(N/N=C/c2cc(I)cc(I)c2O)nc(Nc2ccc([N+](=O)[O-])cc2)n1", "> 100 µM"),
    ("CCN(CC)CCNc1ccc2c3c(cccc13)C(=O)N(Nc1nc(NCc3ccccc3)nc(N(CC)CC)n1)C2=O", "> 100 µM"),
    ("COc1c(Br)cc(Br)cc1C=NNc1nc(Nc2ccccc2)nc(N2CCCCC2)n1", "> 100 µM"),
    ("CCN(CC)c1nc(Nc2cccc(Br)c2)nc(Nc2cc(C)ccc2C)n1", "> 100 µM"),
    ("FC(F)(F)c1cccc(Nc2nc(Nc3cccc(Cl)c3)nc(N3CCOCC3)n2)c1", "> 100 µM"),
]

Give the reported EC50 for Cc1ccc(Nc2nc(NCc3cc(F)ccc3F)nc(Nc3ccc([N+](=O)[O-])cc3)n2)cc1C (system: HBV).
> 100 µM

---

test system: 2.2.15 cells; experiment: neutral red dye uptake cytotoxicity; assay type: cell-based; settings: 9 days treatment, read-out: 50% Cell Death CC50
Below is a list of entries, each paired with its recorded CC50 value.

# CHEM SMILES, TEST VALUE
measured = [
    ("O=[N+]([O-])c1ccc(C=NNc2nc(Nc3ccccc3)nc(NC3CCCCC3)n2)cc1", "> 100 µM"),
    ("C(=NNc1nc(Nc2ccccc2)nc(N2CCCCC2)n1)c1ccccc1", "> 100 µM"),
    ("Clc1ccc(C=NNc2nc(Nc3ccccc3)nc(N3CCCC3)n2)cc1", "> 300 µM"),
    ("Cc1ccc(Nc2nc(NN=Cc3ccc(I)cc3)nc(Nc3ccccc3)n2)c(C)c1", "> 300 µM"),
]

I have this compound here, CCN(CC)c1nc(N/N=C/c2ccc([N+](=O)[O-])cc2)nc(Nc2cc(C)ccc2C)n1 , and I need its recorded CC50.
> 100 µM

For Cc1[nH]c2ccccc2c1C=NNc1nc(Nc2ccccc2)nc(N2CCCCC2)n1 , what is its reported CC50?
> 100 µM
